Source: ChEMBL document CHEMBL4359926

- targetOrTestSystem: Peroxisome proliferator-activated receptor gamma (Homo sapiens, UniProt P37231)
- Sequence (P37231 whole entry, the tested form may be a part): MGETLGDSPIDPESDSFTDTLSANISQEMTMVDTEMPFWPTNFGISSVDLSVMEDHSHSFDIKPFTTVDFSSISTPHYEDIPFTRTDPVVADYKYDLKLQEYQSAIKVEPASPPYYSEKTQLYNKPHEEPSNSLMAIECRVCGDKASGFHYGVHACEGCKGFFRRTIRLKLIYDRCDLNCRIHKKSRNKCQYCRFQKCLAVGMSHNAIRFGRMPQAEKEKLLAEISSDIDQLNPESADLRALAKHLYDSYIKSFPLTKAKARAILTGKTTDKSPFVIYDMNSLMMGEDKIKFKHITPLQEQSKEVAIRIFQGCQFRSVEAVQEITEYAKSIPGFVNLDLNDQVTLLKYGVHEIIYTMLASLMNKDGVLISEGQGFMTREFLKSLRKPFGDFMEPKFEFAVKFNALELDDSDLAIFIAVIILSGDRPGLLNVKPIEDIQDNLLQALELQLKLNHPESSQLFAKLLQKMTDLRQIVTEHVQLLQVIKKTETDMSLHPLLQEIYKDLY
- procedureDetails: Displacement of fluormone PPAR green tracer ligand from recombinant GST-tagged PPARgamma ligand binding domain (unknown origin) incubated for 4 hrs by competitive fluorescence polarization binding assay
# log10 IC50 annotations
Parameter value (number): base-10 log of IC50 in nM.

COc1cc(CNC(=O)c2ccc3c(c2)c(C)c(C)n3Cc2cccc(C(F)(F)F)c2)ccc1O    1.00
Cc1c(C)n(Cc2ccc(-c3ccccc3C(=O)O)cc2)c2ccc(C(=O)NCc3ccccn3)cc12    1.53
Cc1c(C)n(Cc2ccc(-c3ccccc3C(=O)O)cc2)c2ccc(C(=O)NCc3cccc(OCC(=O)O)c3)cc12    1.82
Cc1c(C)n(Cc2cccc(C(F)(F)F)c2)c2ccc(C(=O)NCc3ccc4c(c3)OCO4)cc12    1.20
Cc1c(C)n(Cc2cccc(C(F)(F)F)c2)c2ccc(C(=O)NCc3ccccn3)cc12    2.27

Now let's try a different one.
Prompt: For the compound `Cc1c(C)n(Cc2ccc(-c3ccccc3C(=O)O)cc2)c2ccc(C(=O)NCc3cccnc3)cc12` , what log10 IC50 is on record?
Completion: 2.73

----------
- targetOrTestSystem: Peroxisome proliferator-activated receptor gamma (Homo sapiens, UniProt P37231)
- procedureDetails: Displacement of fluormone PPAR green tracer ligand from recombinant GST-tagged PPARgamma ligand binding domain (unknown origin) incubated for 4 hrs by competitive fluorescence polarization binding assay
Threshold 200 nM. Ki below it: T. Ki at it or above: F.

Reference set, count: 4
Cc1c(C)n(Cc2ccc(-c3ccccc3C(=O)O)cc2)c2ccc(C(=O)NCc3ccc(S(N)(=O)=O)cc3)cc12    F
Cc1c(C)n(Cc2ccc(-c3ccccc3C(=O)O)cc2)c2ccc(C(=O)O)cc12    F
Cc1c(C)n(Cc2cccc(C(F)(F)F)c2)c2ccc(C(=O)NCc3ccccn3)cc12    T
Cc1c(C)n(Cc2ccc(-c3ccccc3C(=O)O)cc2)c2ccc(C(=O)NCCc3ccc(O)cc3)cc12    T

In the following, a different compound is considered.
Prompt: Could you please tell me whether Ki recorded for `Cc1c(C)n(Cc2ccc(-c3ccccc3C(=O)O)cc2)c2ccc(C(=O)NCc3ccc4c(c3)OCO4)cc12` is less than 200 nM?
Completion: T

----------
- targetOrTestSystem: Peroxisome proliferator-activated receptor gamma (Homo sapiens, UniProt P37231)
- procedureDetails: Displacement of fluormone PPAR green tracer ligand from recombinant GST-tagged PPARgamma ligand binding domain (unknown origin) incubated for 4 hrs by competitive fluorescence polarization binding assay
valueType: pIC50
Please express pIC50 as -log10 of the molar concentration.

Record excerpt, results attached:
Cc1c(C)n(Cc2ccc(-c3ccccc3C(=O)O)cc2)c2ccc(C(=O)NCc3ccc(S(N)(=O)=O)cc3)cc12    6.51
Cc1c(C)n(Cc2ccc(-c3ccccc3C(=O)O)cc2)c2ccc(C(=O)O)cc12    5.31
Cc1c(C)n(Cc2cccc(C(F)(F)F)c2)c2ccc(C(=O)N[C@@H](Cc3ccc(O)cc3)C(=O)O)cc12    6.46
Cc1c(C)n(Cc2ccc(-c3ccccc3C(=O)O)cc2)c2ccc(C(=O)NCCc3ccc(O)cc3)cc12    7.32

Prompt: For the molecule `COc1ccc(OC)c(CNC(=O)c2ccc3c(c2)c(C)c(C)n3Cc2cccc(C(F)(F)F)c2)c1` , what pIC50 is on record?
Completion: 7.32

Prompt: Another molecule: `Cc1c(C)n(Cc2ccc(-c3ccccc3C(=O)O)cc2)c2ccc(C(=O)NCC3CCNCC3)cc12`
Completion: 4.92

Prompt: Another molecule: `Cc1c(C)n(Cc2ccc(-c3ccccc3C(=O)O)cc2)c2ccc(C(=O)NC3CCNCC3)cc12`
Completion: 4.38

Prompt: Another molecule: `COc1cc(CNC(=O)c2ccc3c(c2)c(C)c(C)n3Cc2ccc(-c3ccccc3C(=O)O)cc2)ccc1O`
Completion: 7.77

Prompt: Another molecule: `Cc1c(C)n(Cc2ccc(-c3ccccc3C(=O)O)cc2)c2ccc(C(=O)NCc3ccc4c(c3)OCO4)cc12`
Completion: 7.82
